Values from the supplement of paper PMC6555819

Tested on: VDR:RXRa (NR concentration 270 nM, RXRa partner concentration 90 nM)
Test: PBM binding z-score (relative to random genomic background probes); higher = stronger binding; sequences stand for … in GC…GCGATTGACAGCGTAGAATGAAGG
Label condition not met if PBM binding z-score falls below 3; label condition met in every other case.

Could you tell me if the measured PBM binding z-score of `CCAGCTAGGTCATGGTCAGCTAATCTACAGTATG` reaches 3 or more?
condition not met

Could you tell me if the measured PBM binding z-score of `TCTGCTGGGTCAGTTGGTCAGCTAACGAGCTGCC` reaches 3 or more?
condition not met

Could you tell me if the measured PBM binding z-score of `ACTAGTTGGTCAGCCGAGGTCACACACAATTCGG` reaches 3 or more?
condition met

Could you tell me if the measured PBM binding z-score of `CGTCAAAGTTCAAGATAACGTAACAGAAAGCAGC` reaches 3 or more?
condition met

Could you tell me if the measured PBM binding z-score of `ATCTCTAGGTAAGACTCGGTTCAGTGAAGAACGC` reaches 3 or more?
condition not met

Could you tell me if the measured PBM binding z-score of `TCTTGTAGATAAATAGAGGTTAAGAAAGTGCGCT` reaches 3 or more?
condition not met

Could you tell me if the measured PBM binding z-score of `TCTTGTAGATCAAAGGCTAAGAAAGCCGAAGCCT` reaches 3 or more?
condition not met

Could you tell me if the measured PBM binding z-score of `CCGAGTTGGTCAGGAGGTCACACACCGGATATGA` reaches 3 or more?
condition met

Could you tell me if the measured PBM binding z-score of `ATCTTTAGGTAAAGTTCAGTGAAAGATCGATAGA` reaches 3 or more?
condition not met

Could you tell me if the measured PBM binding z-score of `CATACAGGGTCAGCAAGGCCAGAGTAGGGACGGC` reaches 3 or more?
condition met

Could you tell me if the measured PBM binding z-score of `AATATTAGTTGAGACGAGGGCAACCGATAGGTTG` reaches 3 or more?
condition not met

Could you tell me if the measured PBM binding z-score of `AATACAGGGTCGTCGTAGGCCAGAGTACGCACAG` reaches 3 or more?
condition not met

###

Tested on: PPARg:RXRa (NR concentration 180 nM, RXRa partner concentration 90 nM)
Test: PBM binding z-score (relative to random genomic background probes); higher = stronger binding; sequences stand for … in GC…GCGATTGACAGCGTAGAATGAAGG
Label False if PBM binding z-score falls below 1; label True in every other case.

Could you tell me if the measured PBM binding z-score of `TCTTGTAGATCAAGCACGTTAAGAAAGCCTGAGT` reaches 1 or more?
False

Could you tell me if the measured PBM binding z-score of `CGAACGAGGGGATGAGTTGATAGCAAATGCCGAT` reaches 1 or more?
False

Could you tell me if the measured PBM binding z-score of `GCTTACGCGTCAAAGGTTATAGCATGAATAGAAT` reaches 1 or more?
True

Could you tell me if the measured PBM binding z-score of `TCATATAGGTGAAGGTGAAAGTCGAACGATATGA` reaches 1 or more?
True

Could you tell me if the measured PBM binding z-score of `GGAACGAGGGCAATTTGATAGCAGAGTTTGATGG` reaches 1 or more?
True

Could you tell me if the measured PBM binding z-score of `ATACCAACGTGATCGTGAGGTCGTTGATACTAAC` reaches 1 or more?
False

Could you tell me if the measured PBM binding z-score of `ATCTGTAGGTAACCAAGTTCAGTGAATGCCGAAC` reaches 1 or more?
False

Could you tell me if the measured PBM binding z-score of `TCATATAGGTAAACAGGTGAAAGTGCGTAAGTTA` reaches 1 or more?
True

Could you tell me if the measured PBM binding z-score of `TCTTGTAGATCAACGGTTAAGAAAGCCGAAGCCT` reaches 1 or more?
False

Could you tell me if the measured PBM binding z-score of `CCGACTGGGGCATAAAGGTTACCATACCATCCGG` reaches 1 or more?
True

Could you tell me if the measured PBM binding z-score of `CCGTACGGGTCACTGACAGGTTATAGCATTTGGA` reaches 1 or more?
True

Could you tell me if the measured PBM binding z-score of `CGAACTAGGTCAGAACAGGACAGTCAAGGATGAT` reaches 1 or more?
True

Could you tell me if the measured PBM binding z-score of `TAGCCTAGGTAATTCAGGGGCCAGTATAGAAAGC` reaches 1 or more?
False

Could you tell me if the measured PBM binding z-score of `CCTTACGGGTCACTGACAGGTTATAGTATTTGGA` reaches 1 or more?
True

Could you tell me if the measured PBM binding z-score of `ACAATGAGGTTAAGATCAGGGAAACAGAATACAT` reaches 1 or more?
True

Could you tell me if the measured PBM binding z-score of `CCTGCTAGGTCAATGGTCAGATAAAGCAGCTCGC` reaches 1 or more?
True

Could you tell me if the measured PBM binding z-score of `TAGCCTAGGACATTGGGCCAGTATAGTACGCATC` reaches 1 or more?
False

Could you tell me if the measured PBM binding z-score of `ATATCTAGGTAAGACTCAGTTCAGTGAAGAACGC` reaches 1 or more?
True

Could you tell me if the measured PBM binding z-score of `TCTTGTAGATCTAAGGTTAAGAAAGCCGAAGCCT` reaches 1 or more?
True

Could you tell me if the measured PBM binding z-score of `CGAACGCGGGCATGAGTTGATAGCAAATGCCGAT` reaches 1 or more?
False

Could you tell me if the measured PBM binding z-score of `CCTGCTAGGTCATTGGTCAGCTAAAGCAGCTCGC` reaches 1 or more?
True

Could you tell me if the measured PBM binding z-score of `CGTCAAGGTTCAACTAAGGTAACGTAAAGCACGC` reaches 1 or more?
True

Could you tell me if the measured PBM binding z-score of `CGAACTAGGTCATTAACAGGACAGTGAATAGTAA` reaches 1 or more?
True

Could you tell me if the measured PBM binding z-score of `ATACCAAGGTGATCGTGAGGTCGTAGATACTAAC` reaches 1 or more?
False

Could you tell me if the measured PBM binding z-score of `CCTAGTTGGTCATGAGGTCACACACCGGATATGA` reaches 1 or more?
True

Could you tell me if the measured PBM binding z-score of `ATCGCAAGGTCGAAGGTGAGTATACCCACCCGAA` reaches 1 or more?
True

Could you tell me if the measured PBM binding z-score of `ACTATTCGTTGAGACGAGGGCAACCGATAGGTTG` reaches 1 or more?
False

Could you tell me if the measured PBM binding z-score of `TCTGCTAGGTCGACGATGGTCAGCTAATCTGCTA` reaches 1 or more?
False

Could you tell me if the measured PBM binding z-score of `CCTCGGTGGACAACAGGAGGTCAGAGCTGCCAGA` reaches 1 or more?
False

Could you tell me if the measured PBM binding z-score of `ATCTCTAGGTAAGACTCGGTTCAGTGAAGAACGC` reaches 1 or more?
False

Could you tell me if the measured PBM binding z-score of `GCTTGTTGGTCAGTAAAAGGTCACACACCGGTCG` reaches 1 or more?
True

Could you tell me if the measured PBM binding z-score of `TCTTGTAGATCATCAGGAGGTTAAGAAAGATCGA` reaches 1 or more?
False

Could you tell me if the measured PBM binding z-score of `ATCCCTAGGTAAAGATAGTTCAGTGAATGCAAAT` reaches 1 or more?
False

Could you tell me if the measured PBM binding z-score of `ATCTCTAGGTAACAAGTTGAGTGAAAGAGAGGAC` reaches 1 or more?
True

Could you tell me if the measured PBM binding z-score of `TCTAGTTTGTCAAAGGTCACACACTCGAAATGCG` reaches 1 or more?
True

Could you tell me if the measured PBM binding z-score of `CCTAGCAGGCCAGGGTCACTCCAGCATTTCGCTT` reaches 1 or more?
False

Could you tell me if the measured PBM binding z-score of `CGACCTAGGTCATCCAGGACAGTGAATACATTGA` reaches 1 or more?
True

Could you tell me if the measured PBM binding z-score of `TCTATTACTTGAAGGGCAACCGACGAGTCCGTTT` reaches 1 or more?
False

Could you tell me if the measured PBM binding z-score of `TCATATAGGTAAAAGGTGAAAGTCGGTGTGGTAA` reaches 1 or more?
True

Could you tell me if the measured PBM binding z-score of `CGTCCAAGGTTAGCAGGTCAGTGAAAGCGACGTG` reaches 1 or more?
True

Could you tell me if the measured PBM binding z-score of `CGTCCTAGGTCATAGGAGGTCAGTGAAGACAGAT` reaches 1 or more?
True

Could you tell me if the measured PBM binding z-score of `TCTAGCAGGGCAGAGGGTCACTCAAGAGGTACGG` reaches 1 or more?
True

Could you tell me if the measured PBM binding z-score of `ATCGAAAGGTCGAAGGTGAGTTTACCCACCCGAA` reaches 1 or more?
True

Could you tell me if the measured PBM binding z-score of `TCTAGTTAGTCAAAGGTCACACACTCGAAATGCG` reaches 1 or more?
True

Could you tell me if the measured PBM binding z-score of `CTCGAAAGGTCGGTTGAGGTGAGTGTACGGATAA` reaches 1 or more?
False

Could you tell me if the measured PBM binding z-score of `CCTAGCAGGCCAGTGTCACTCAAGCATTTCGCTT` reaches 1 or more?
False

Could you tell me if the measured PBM binding z-score of `GCGACTGGGGCATCAGCACGTTACCATAACTTAA` reaches 1 or more?
False

Could you tell me if the measured PBM binding z-score of `GCGACTGGGGTATCAGCAGGTTACCATAACTTAA` reaches 1 or more?
False

Could you tell me if the measured PBM binding z-score of `GCGACTGGGGCCTCAGCAGGTTACCATAACTTAA` reaches 1 or more?
False

Could you tell me if the measured PBM binding z-score of `CCTAGCAGGCCAGGGTCCCTCAAGCATTTCGCTT` reaches 1 or more?
False
